Molecular target: T1, human SLC34A2 (human, UniProt O95436 1-690)
T1 construct: whole, on cells; also called human solute carrier 34 A2; NaPi2b
T1 sequence (looked up): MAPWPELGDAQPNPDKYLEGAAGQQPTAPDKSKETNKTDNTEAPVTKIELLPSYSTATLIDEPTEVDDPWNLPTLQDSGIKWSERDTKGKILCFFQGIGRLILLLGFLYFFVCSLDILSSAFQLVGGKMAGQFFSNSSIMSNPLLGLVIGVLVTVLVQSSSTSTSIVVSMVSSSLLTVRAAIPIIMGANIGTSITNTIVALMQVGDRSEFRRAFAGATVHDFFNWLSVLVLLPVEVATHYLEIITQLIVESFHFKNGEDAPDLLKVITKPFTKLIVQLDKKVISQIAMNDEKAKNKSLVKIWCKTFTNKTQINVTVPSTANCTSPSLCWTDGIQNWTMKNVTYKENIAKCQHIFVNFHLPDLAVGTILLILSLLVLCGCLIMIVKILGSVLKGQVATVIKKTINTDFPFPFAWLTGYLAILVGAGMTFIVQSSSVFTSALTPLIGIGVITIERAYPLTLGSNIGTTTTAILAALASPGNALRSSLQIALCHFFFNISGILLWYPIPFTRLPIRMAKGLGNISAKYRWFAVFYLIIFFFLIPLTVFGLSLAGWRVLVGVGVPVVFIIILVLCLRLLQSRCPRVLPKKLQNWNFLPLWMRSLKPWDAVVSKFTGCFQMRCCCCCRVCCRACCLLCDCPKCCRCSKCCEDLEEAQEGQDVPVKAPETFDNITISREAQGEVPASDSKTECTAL
Assay: FACS, HEK293/human SLC34A2 cells
pEC50: −log10 of the molar value.
PROPERTY LABEL: pEC50

| BINDER | RESULT |
| --- | --- |
| 30H9B8F9.p1.z9 hIgG1 (antibody, V domains shown, humanized hIgG1) VH: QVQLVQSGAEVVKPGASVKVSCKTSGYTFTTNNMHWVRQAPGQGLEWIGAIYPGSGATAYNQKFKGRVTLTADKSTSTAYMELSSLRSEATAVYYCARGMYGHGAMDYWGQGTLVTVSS VL: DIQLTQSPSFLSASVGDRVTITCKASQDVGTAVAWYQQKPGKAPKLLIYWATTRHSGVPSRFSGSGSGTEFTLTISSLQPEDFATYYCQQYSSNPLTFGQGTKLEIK | 8.74 |
| 63A11D5B4.p1.z5 hIgG1 (antibody, V domains shown, humanized hIgG1) VH: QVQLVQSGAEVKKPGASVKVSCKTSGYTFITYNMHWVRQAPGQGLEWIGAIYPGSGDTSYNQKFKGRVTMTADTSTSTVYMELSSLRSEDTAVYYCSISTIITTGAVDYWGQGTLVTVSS VL: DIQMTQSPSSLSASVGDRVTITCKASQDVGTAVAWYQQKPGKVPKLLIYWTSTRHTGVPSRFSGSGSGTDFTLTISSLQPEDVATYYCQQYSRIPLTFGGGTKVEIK | 8.32 |
| xi91C9F1 hIgG1 (antibody, V domains shown, chimeric, hIgG1) VH: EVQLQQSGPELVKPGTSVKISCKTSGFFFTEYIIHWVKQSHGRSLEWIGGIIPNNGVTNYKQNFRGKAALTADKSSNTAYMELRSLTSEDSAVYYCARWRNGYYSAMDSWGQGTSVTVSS VL: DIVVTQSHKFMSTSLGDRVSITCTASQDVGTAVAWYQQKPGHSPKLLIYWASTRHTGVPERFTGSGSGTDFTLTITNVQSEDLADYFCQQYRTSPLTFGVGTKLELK | 8.75 |
| 91C9F1.p1.z6 hIgG1 (antibody, V domains shown, humanized hIgG1) VH: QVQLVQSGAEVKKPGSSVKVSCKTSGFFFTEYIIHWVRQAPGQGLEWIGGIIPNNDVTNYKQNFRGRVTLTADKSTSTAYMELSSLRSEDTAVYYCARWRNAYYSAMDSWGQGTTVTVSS VL: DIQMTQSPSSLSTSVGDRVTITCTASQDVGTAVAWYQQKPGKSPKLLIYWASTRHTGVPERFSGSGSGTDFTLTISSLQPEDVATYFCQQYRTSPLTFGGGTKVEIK | 8.76 |
| 30H9B8F9 VH_P1/VL hIgG1 (antibody, V domains shown, PTM-derisked chimeric, hIgG1; that P1 is the N=>S version follows from the humanized .p1 chains; also called 30H9B8F9.p1 hIgG1) VH: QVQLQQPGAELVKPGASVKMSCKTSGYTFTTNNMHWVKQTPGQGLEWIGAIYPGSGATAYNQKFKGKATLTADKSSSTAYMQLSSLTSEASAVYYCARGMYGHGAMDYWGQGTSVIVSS VL: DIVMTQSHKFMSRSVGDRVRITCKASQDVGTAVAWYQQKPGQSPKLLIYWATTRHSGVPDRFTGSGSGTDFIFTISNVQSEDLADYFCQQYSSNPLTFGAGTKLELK | 8.93 |

Source: patent US20240301052A1
